experiment: Solubility of lasmiditan over the pH range of the oral cavity; assay type: physicochemical; conditions: pH 6.8, aqueous buffer
Value type: solubility
The reply must contain the numeric value and, after it, the unit.

Req: Which solubility reading was recorded for the compound CN1CCC(C(=O)c2cccc(NC(=O)c3c(F)cc(F)cc3F)n2)CC1 [Lasmiditan] ?
Resp: 9800 µg/mL

###

assay: Solubility of lasmiditan over the pH range of the oral cavity; type: physicochemical; conditions: pH 5, aqueous buffer
Value type: solubility

Req: Which solubility reading was recorded for the compound CN1CCC(C(=O)c2cccc(NC(=O)c3c(F)cc(F)cc3F)n2)CC1 ?
Resp: 35 mg/mL
